B1: CPEB3 Ribozyme (parent)
chain: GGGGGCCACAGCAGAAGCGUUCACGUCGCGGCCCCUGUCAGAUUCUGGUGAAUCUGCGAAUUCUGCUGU

Variants of: B1
protocolSummary: self-cleavage, relative activity (ratio to wild type); higher = more cleavage; co-transcriptional
measuredMetric: self-cleavage
Answers are plain numbers.

What does the data say about its self-cleavage? Entry: C12U U67C 0.978

What does the data say about its self-cleavage? Entry: G19C G50C 0.148

What does the data say about its self-cleavage? Entry: G14A U38C 0.501

Give self-cleavage for each listed item.
1. C6U U43C
2. C6U U43G
3. G17U U64G
4. G2C A52U
5. U21G G28A
6. C12G U20C

[0.902, 0.815, 0.183, 0.0375, 0.245, 0.119]

Give self-cleavage for each listed item.
1. G11A U53A
2. G4U C63U
3. C9U G19C
4. C24A G58C
5. G31U C45U
6. A40G U62G

1: 0.533; 2: 0.739; 3: 0.143; 4: 0.509; 5: 0.789; 6: 0.858

Give self-cleavage for each listed item.
1. A59G A60C
2. U43A U62C
3. A15G G47U
4. G4U A15G
5. G25U G47A

1. 0.238
2. 0.668
3. 1.04
4. 0.678
5. 0.188
